Reference source for all entries: the supplement of paper PMC10567573

Provide the reported protein stability index of each item.
- assayInfo: protein stability index of a GFP-peptide fusion (GPS, HEK-293T) (PSI 1-6); higher = more stable;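 note: 24-mer peptide tiles fused after GFP, lentivirally expressed, FACS-sorted into six equal bins by GFP/DsRed ratio, decoded by Illumina sequencing, PSI is the read-weighted mean bin number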
- measurementSetup: treatment: DMSO; c terminus: a fixed tail appended
Answers are plain numbers.

Some solved cases for reference:
Could you tell me which protein stability index is on file for KKSNSPGTASSGSSRLPQPSGAGK [ZC2HC1A] ?
5.25

Could you tell me which protein stability index is on file for RQGLKYCLPLTFCIHTGLSQYIAV [FBXO3] ?
3.08

Working through the 4 sequences below one at a time, give protein stability index for each.
1. FKEQLQALIPYVLNPSKLMEKEIN [ATL3]
2. KQRGYFFLDERLYCESHAKARVKP [PDLIM4]
3. LNATSKFMEFYQDVKDWWLFGFYF [EDNRA]
4. AQNAVRLHYGLPVVVKLLHPPSHW [CTNNB1]

1. 1.91
2. 2.81
3. 2.49
4. 2.32

Working through the 4 sequences below one at a time, give protein stability index for each.
1. YHRETEGEEQSQYMHVGSCQHLSS [KCNA3]
2. EERVALNTEIEKLGRSIVSSPQGK [PKD2L1]
3. NKLWELCCQWLKPKMRSKEQILEL [ZNF449]
4. SRLNLTGLGYFSCHSHTVVQDYSY [CCDC3]

1. 4.09
2. 5.06
3. 2.62
4. 2.12

Working through the 2 sequences below one at a time, give protein stability index for each.
1. NKRERSKLKNLRRKQRRRERWLQK [RNF180]
2. RQLLRDFQSRLPYQYLHYALFKAN [P3H4]

4.32
2.49

###

- assayInfo: protein stability index of a GFP-peptide fusion (GPS, HEK-293T) (PSI 1-6); higher = more stable
- measurementSetup: treatment: DMSO; c terminus: a fixed tail appended
I would appreciate it if you labelled entries fulfilled when protein stability index is 3 or higher, otherwise not fulfilled.

Check out these entries, answers already filled in.
I'd appreciate it if you could say whether DDIVSGRLPCSFVTLALLGSYTVQ [EPB41L3] has protein stability index at least equal to 3.
not fulfilled

I'd appreciate it if you could say whether NLSKSRKILRSMSRKVTTNKLLLS [VTI1B] has protein stability index at least equal to 3.
not fulfilled

I'd appreciate it if you could say whether VPKDQRLQAIKAAIMLLPDENREV [DLC1] has protein stability index at least equal to 3.
fulfilled

# next sequence below
I'd appreciate it if you could say whether KKTQETLSQAGQKTSAALSTVGSA [TPD52L2] has protein stability index at least equal to 3.
fulfilled

###

Provide the reported protein stability index of each item.
- assayInfo: protein stability index of a GFP-peptide fusion (GPS, HEK-293T) (PSI 1-6); higher = more stable
- measurementSetup: treatment: DMSO; c terminus: a fixed tail appended
Give bare numbers.

Could you tell me which protein stability index is on file for IRTYLGRSPLVSGDESSLLLNAAS [RHOBTB3] ?
2.62

Could you tell me which protein stability index is on file for VQYLGQAPELLGGAEPGTYLTGTI [ADAMTS4] ?
2.33

Could you tell me which protein stability index is on file for LSTADGKAFADPEVLRRLTSSVSC [ANKRD17] ?
3.55

Could you tell me which protein stability index is on file for YKFDPKTKRILTLQKANSWFNCRK [MMP1] ?
2.67

Working through the 3 sequences below one at a time, give protein stability index for each.
1. EVRYYLRQIVSGLKYLHEQEILHR [PLK2]
2. STEDMERALSEYLAVFARCLAGCE [P3H4]
3. LPQDEGGGGYSSVRYSDCCERVVI [KCNA4]

1: 3.11; 2: 3.59; 3: 2.41

Working through the 3 sequences below one at a time, give protein stability index for each.
1. GKETLTPSELRDLVTQQLPHLMPS [S100A14]
2. TSGMGFHAPKIGSNGVEMAAKFPS [SDE2]
3. QSHDDLSNATATPSVRKKAGSFSR [C2CD2L]

[3.94, 3.53, 4.75]

Working through the 5 sequences below one at a time, give protein stability index for each.
1. RLVNEYVELVNAACNFEPHESFFS [ZER1]
2. GNTESELKKLAEENPDLQEAYIAK [GDAP1]
3. MQPESGANGTVIAEFILLGLLEAP [OR3A1]
4. WSLGVIMYEMLIGYPPFCSETPQE [STK38L]
5. EEAKGALLGTSGLKRRFSRLENRY [DAPK3]

1. 2.34
2. 5.51
3. 2.18
4. 2.85
5. 3.8

Working through the 5 sequences below one at a time, give protein stability index for each.
1. QVLDEVIPIHGKGNFPTMEVKPKD [TENT5D]
2. RLNAYRGYCSNQLAAKALLDQKKQ [NET1]
3. ELSPPLSPASHVDVDLTIHGRHID [FOXJ1]
4. YICPDYQSYFKTIEDFQQKILLTK [KRT36]
5. GAAEEARRLEQRWGFGLEELYGLA [ACBD3]

[4.61, 3.25, 4.82, 2.33, 2.77]

Working through the 7 sequences below one at a time, give protein stability index for each.
1. GQFYLDLYPREGKYNHAACFGLQP [NLN]
2. SELQREMEALAAETNLLLAQKQRL [TEKT4]
3. KVFEELLLDADWSINAGSWMWLSC [CRY1]
4. ALSPKTTITMAHLLAAREDLSKII [FAM98B]
5. EYRQKHGVPPLKLCKNLNREAQQY [GLIPR2]
6. MVWNQNGKSPSITFEYTLLQPPHE [ADAMTSL2]
7. PNILFYASTVLKSVGFQSNEAASL [SLC2A12]

[1.91, 4, 2.28, 2.29, 3.42, 2.23, 2.25]

###

Provide the reported protein stability index of each item.
- assayInfo: protein stability index of a GFP-peptide fusion (GPS, HEK-293T) (PSI 1-6); higher = more stable
- measurementSetup: treatment: MLN4924 1 uM, 8 h; c terminus: a fixed tail appended

Some solved cases for reference:
Could you tell me which protein stability index is on file for LEKEQVAHIRAERDILVEADGAWV [STK38L] ?
3.92

Could you tell me which protein stability index is on file for CPASNECEITKRRRKACQACRFTK [ESRRA] ?
4.26

Could you tell me which protein stability index is on file for MISAAQLLDELMGRDRNLAPDEKR [LUC7L3] ?
4.11

Could you tell me which protein stability index is on file for MAGTGLLALRTLPGPSWVRGSGPS [ALKBH7] ?
2.88

Could you tell me which protein stability index is on file for GGKNCKKPAEYGYVSLGRLGAAKG [CEBPB] ?
3.52

Could you tell me which protein stability index is on file for LQLLHECSPSQMDLLCAQLQLPQL [FANCE] ?
2.49

***
Could you tell me which protein stability index is on file for RIASRAIDNAADLLIFGKELSAIG [SNX8] ?
2.44

###

- assayInfo: protein stability index of a GFP-peptide fusion (GPS, HEK-293T) (PSI 1-6); higher = more stable
- measurementSetup: treatment: DMSO; c terminus: a fixed tail appended
Provide the reported protein stability index of each item.
Numbers only.

Some solved cases for reference:
Could you tell me which protein stability index is on file for MALSNHYRSEDLLDVDTAAGGFQQ [FBXO3] ?
4.03

Could you tell me which protein stability index is on file for RRTLQGLEIELQSQLSMKAGLENT [KRT13] ?
3.4

Could you tell me which protein stability index is on file for ALCQGLYFHINQTLREAHFHSLQH [FAM104A] ?
2.81

Could you tell me which protein stability index is on file for SKLKGAAVKLADFGLAIEVEGEQQ [CAMK2A] ?
4.06

Could you tell me which protein stability index is on file for GAERLDALLADEERCLSCILAQQP [TRADD] ?
3.59

Working through the 2 sequences below one at a time, give protein stability index for each.
1. FDRTEWVQIRRLEAAGESLEEEIR [ZC2HC1C]
2. RRHLQFWKSHLRNVQRPLLQAPFL [RHOBTB2]

1: 4.02; 2: 2.29

Working through the 2 sequences below one at a time, give protein stability index for each.
1. LIRSLFHGFLFMIFQIGVLGFGPT [SOAT1]
2. LRVMETKPDKAVSIIECDMNVDFD [UFD1]

[3.52, 3.57]

Working through the 6 sequences below one at a time, give protein stability index for each.
1. KSMAWCENSICVGFKRDYYLIRVD [VPS39]
2. IVDIKPANMEDLTEVITASEFHPH [PPP2R2C]
3. NKVKVLDAPVPDCLGVHCDFHQGL [FSD1]
4. LQLGEGVEFDVLPAFDALGQLTGG [OAS1]
5. AEIATASASASTTTTVTAVTAEVD [SNAP91]
6. HYYKENDPSVRLKIASLLGLLSKT [INTS4]

3
3.92
3.26
2.37
5.62
2.05

Working through the 3 sequences below one at a time, give protein stability index for each.
1. SAASVYAGAGGSGSRISVSRSTSF [KRT18]
2. VRKPAEAERYKLERLAEAEKSQLI [FLOT1]
3. NFKPRGYSECIVTVGGEERVSRKP [GAN]

1. 3.66
2. 4.46
3. 4.14
